The reported numbers originate from patent US20080182751A1.

test: pH stability of 4-OH benzyl ITC in 5 buffer solutions; assay type: physicochemical; settings: sodium acetate/acetic acid buffer; pH 3.0
value type: half-life (min)
Kindly answer with a numeric value in min, unit omitted.

Given the entry Oc1ccc(CN=C=S)cc1 [4-hydroxybenzyl isothiocyanate] , report its measured half-life.
216

###

experiment: Stability of 4-hydroxybenzyl isothiocyanate in buffered aqueous solutions (citrate buffers); type: physicochemical; conditions: citrate buffer; pH 4.0 buffer
value type: half-life

Given the entry Oc1ccc(CN=C=S)cc1 [4-hydroxybenzyl isothiocyanate] , report its measured half-life.
4.5 h
